Source of measurements: patent US7473688B2

biological target: HCV NS5B (Hepatitis C virus genotype 1b, UniProt Q9WMX2); construct: The protein was expressed with an 18 amino acid C-terminal truncation to enhance the solubility; made in house; host or cells: E. coli BL21 (DE3), pET21a; experiment: HCV NS5B RdRp enzyme assay (preincubation protocol); type: biochemical; details: Table 1, read-out: IC50*
Sequence (Q9WMX2 2420-2992): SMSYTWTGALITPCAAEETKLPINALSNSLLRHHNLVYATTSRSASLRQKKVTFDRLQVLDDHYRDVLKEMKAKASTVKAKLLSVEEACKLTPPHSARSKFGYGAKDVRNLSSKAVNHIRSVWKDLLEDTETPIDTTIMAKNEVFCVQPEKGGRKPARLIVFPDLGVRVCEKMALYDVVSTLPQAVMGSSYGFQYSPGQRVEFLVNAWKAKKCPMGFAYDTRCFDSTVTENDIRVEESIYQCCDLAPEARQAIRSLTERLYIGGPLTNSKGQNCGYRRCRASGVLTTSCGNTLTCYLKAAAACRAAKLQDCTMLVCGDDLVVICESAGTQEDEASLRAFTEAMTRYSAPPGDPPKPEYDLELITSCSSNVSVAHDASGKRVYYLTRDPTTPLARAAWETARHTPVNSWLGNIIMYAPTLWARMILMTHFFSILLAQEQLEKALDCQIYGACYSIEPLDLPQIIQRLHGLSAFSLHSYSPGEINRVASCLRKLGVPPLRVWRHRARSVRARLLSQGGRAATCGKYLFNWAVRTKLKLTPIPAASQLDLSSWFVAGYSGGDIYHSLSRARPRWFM
pIC50: −log10 of the molar value.
A collection of compounds and their measured pIC50
test.readout: pIC50

[[record]]
compound = "O=C(O)c1ccc2c(C3CCCCC3)c3n(c2c1)CC(C(=O)Nn1cnnc1)Cc1ccccc1-3 (stereo not shown)"
result = "6.00 to 8.00"

[[record]]
compound = "O=C(NS(=O)(=O)C(F)(F)F)c1ccc2c(C3CCCCC3)c3n(c2c1)CC(C(=O)N1CCOCC1)=Cc1ccccc1-3"
result = "6.00 to 8.00"

[[record]]
compound = "O=C(O)c1ccc2c(C3CCCCC3)c3n(c2c1)CC(NC(=O)N1CCC(N2CCOCC2)CC1)Cc1ccccc1-3 (stereo not shown)"
result = "6.00 to 8.00"

[[record]]
compound = "CN(C)C(=O)[C@@H]1CCCN1C(=O)C1=Cc2ccccc2-c2c(C3CCCCC3)c3ccc(C(=O)NS(=O)(=O)N(C)C)cc3n2C1"
result = "6.00 to 8.00"

[[record]]
compound = "CC(C)(C)OC(=O)N1CCN(C(=O)C2=Cc3ccccc3-c3c(C4CCCCC4)c4ccc(C(=O)O)cc4n3C2)CC1"
result = "6.00 to 8.00"

[[record]]
compound = "CC(=O)N1CCN(C(=O)C2=Cc3ccccc3-c3c(C4CCCCC4)c4ccc(C(=O)NS(=O)(=O)N5CCOCC5)cc4n3C2)CC1"
result = "6.00 to 8.00"

[[record]]
compound = "COC(=O)c1ccc2c(C3CCCCC3)c3n(c2c1)CC(C(=O)N1CCC(N2CCOCC2)CC1)=Cc1cc(OC)ccc1-3"
result = "< 6.00"


---

target: HCV NS5B (Hepatitis C virus genotype 1b); construct: The protein was expressed with an 18 amino acid C-terminal truncation to enhance the solubility; made in house; host or cells: E. coli BL21 (DE3), pET21a; test: HCV NS5B RdRp enzyme assay (preincubation protocol); type: biochemical; conditions: Table 1b, read-out: IC50*
A collection of molecules and their measured IC50
test.readout: IC50

[[record]]
molecule = "COc1ccc2c(c1)C=C(C(=O)N1CCOCC1)Cn1c-2c(C2CCCCC2)c2ccc(C(=O)NS(=O)(=O)N3CCC3)cc21"
test_readout = "IC50"
result = "20 to 1000 nM"

[[record]]
molecule = "COc1ccc2c(c1)C=C(C(=O)N(CC(=O)O)CC(=O)O)Cn1c-2c(C2CCCCC2)c2ccc(C(=O)NS(=O)(=O)N(C)C)cc21"
test_readout = "IC50"
result = "20 to 1000 nM"

[[record]]
molecule = "COc1cccc2c1C=C(C(=O)N1C[C@@H](C)N[C@@H](C)C1)Cn1c-2c(C2CCCCC2)c2ccc(C(=O)O)cc21"
test_readout = "IC50"
result = "20 to 1000 nM"

[[record]]
molecule = "COc1ccc2c(c1)C=C(C(=O)N1CC(CO)C1)Cn1c-2c(C2CCCCC2)c2ccc(C(=O)NS(=O)(=O)N(C)C)cc21"
test_readout = "IC50"
result = "20 to 1000 nM"

[[record]]
molecule = "COc1ccc2c(c1)C=C(C(=O)O)Cn1c-2c(C2CCCCC2)c2ccc(C(=O)NS(=O)(=O)N3CCN(C(C)=O)CC3)cc21"
test_readout = "IC50"
result = "20 to 1000 nM"

[[record]]
molecule = "COC(=O)c1ccc2c(C3CCCCC3)c3n(c2c1)CC(C(=O)N1C[C@@H](C)N[C@@H](C)C1)=Cc1c(OC)cccc1-3"
test_readout = "IC50"
result = "20 to 1000 nM"

[[record]]
molecule = "O=C(O)c1ccc2c(C3CCCCC3)c3n(c2c1)CC(C(=O)N1CCOC(CO)C1)=Cc1cc(F)ccc1-3 (stereo not shown)"
test_readout = "IC50"
result = "20 to 1000 nM"


---

A collection of molecules and their measured IC50
Target: HCV NS5B (Hepatitis C virus genotype 1b)
Construct: The protein was expressed with an 18 amino acid C-terminal truncation to enhance the solubility; made in house; host or cells: E. coli BL21 (DE3), pET21a
Assay: HCV NS5B RdRp enzyme assay (preincubation protocol)
Type: biochemical
Details: Table 1b, read-out: IC50*
Method: HCV NS5B RdRp cloning, expression, and purification. The cDNA encoding the NS5B protein of HCV, genotype 1b, was cloned into the pET21a expression vector. The protein was expressed with an 18 amino acid C-terminal truncation to enhance the solubility. […] Standard HCV NS5B RdRp enzyme assay. […] Plates were read on a Packard Top Count NXT after >1 hr incubation at room temperature. […] IC50 values for compounds were determined using seven different [I]. […]
test.readout: IC50

[[record]]
molecule = "COc1ccc2c(c1)CC(NC(=O)N(C)CC(=O)NC(C)C)Cn1c-2c(C2CCCCC2)c2ccc(C(=O)NS(=O)(=O)N(C)C)cc21 (stereo not shown)"
test_readout = "IC50"
result = "20 to 1000 nM"

[[record]]
molecule = "COc1ccc2c(c1)C=C(C(=O)N1CCOCC1)Cn1c-2c(C2CCCCC2)c2ccc(C(=O)NS(=O)(=O)N3CCCC3)cc21"
test_readout = "IC50"
result = "20 to 1000 nM"

[[record]]
molecule = "COc1ccc2c(c1)C=C(C(=O)N1CC(OP(=O)(OC(C)(C)C)OC(C)(C)C)C1)Cn1c-2c(C2CCCCC2)c2ccc(C(=O)NS(=O)(=O)N(C)C)cc21"
test_readout = "IC50"
result = "20 to 1000 nM"

[[record]]
molecule = "COc1ccc2c(c1)C=C(C(=O)N[C@@H]1C3CCC(C)([C@@H]1O)C3(C)C)Cn1c-2c(C2CCCCC2)c2ccc(C(=O)NS(=O)(=O)N(C)C)cc21 (stereo partly shown)"
test_readout = "IC50"
result = "20 to 1000 nM"


---

A collection of compounds and their measured IC50
Biological target: HCV NS5B (Hepatitis C virus genotype 1b, UniProt Q9WMX2)
Construct: The protein was expressed with an 18 amino acid C-terminal truncation to enhance the solubility; made in house; host or cells: E. coli BL21 (DE3), pET21a
Test: HCV NS5B RdRp enzyme assay (preincubation protocol)
Assay type: biochemical
Details: IC50*, Table 1
Procedure: HCV NS5B RdRp cloning, expression, and purification. The cDNA encoding the NS5B protein of HCV, genotype 1b, was cloned into the pET21a expression vector. The protein was expressed with an 18 amino acid C-terminal truncation to enhance the solubility. […] Standard HCV NS5B RdRp enzyme assay. […] Plates were read on a Packard Top Count NXT after >1 hr incubation at room temperature. […] IC50 values for compounds were determined using seven different [I]. […]
test.readout: IC50

[[record]]
smiles_representation = "CN(C)S(=O)(=O)NC(=O)c1ccc2c(C3CCCCC3)c3n(c2c1)CC(C(=O)N1CCC(=O)CC1)=Cc1ccccc1-3"
result = "10 to 1000 nM"

[[record]]
smiles_representation = "O=C(O)c1ccc2c(C3CCCCC3)c3n(c2c1)CC(C(=O)N1CCC2(CC1)OCCO2)=Cc1ccccc1-3"
result = "10 to 1000 nM"

[[record]]
smiles_representation = "CN(C)S(=O)(=O)NC(=O)c1ccc2c(C3CCCCC3)c3n(c2c1)CC(C(=O)N1CCC2(CC1)OCCO2)=Cc1ccccc1-3"
result = "10 to 1000 nM"


---

A collection of molecules and their measured pIC50
target: HCV NS5B (Hepatitis C virus genotype 1b); construct: The protein was expressed with an 18 amino acid C-terminal truncation to enhance the solubility; made in house; host or cells: E. coli BL21 (DE3), pET21a; assay: HCV NS5B RdRp enzyme assay (preincubation protocol); format: biochemical; details: Table 1, read-out: IC50*
pIC50: −log10 of the molar value.
test.readout: pIC50

[[record]]
molecule = "CC(=O)NC1CCN(C(=O)C2=Cc3ccccc3-c3c(C4CCCCC4)c4ccc(C(=O)O)cc4n3C2)CC1"
result = "6.00 to 8.00"

[[record]]
molecule = "CN(C)S(=O)(=O)NC(=O)c1ccc2c(C3CCCCC3)c3n(c2c1)CC(C(=O)N1CCNC(=O)C1)=Cc1ccccc1-3"
result = "6.00 to 8.00"

[[record]]
molecule = "CN(C)S(=O)(=O)NC(=O)c1ccc2c(C3CCCCC3)c3n(c2c1)CC(C(=O)N1CCC(N2CCOCC2)CC1)=Cc1ccccc1-3"
result = "6.00 to 8.00"

[[record]]
molecule = "CN(C)S(=O)(=O)NC(=O)c1ccc2c(C3CCCCC3)c3n(c2c1)CC(C(=O)N1CCC(N2CC[C@@H](F)C2)CC1)=Cc1ccccc1-3"
result = "6.00 to 8.00"

[[record]]
molecule = "CN(C)S(=O)(=O)NC(=O)c1ccc2c(C3CCCCC3)c3n(c2c1)CC(C(=O)N1CCC(N2CCC(F)CC2)CC1)=Cc1ccccc1-3"
result = "6.00 to 8.00"

[[record]]
molecule = "C[C@@H]1CN(C(=O)NC2Cc3ccccc3-c3c(C4CCCCC4)c4ccc(C(=O)NS(=O)(=O)N(C)C)cc4n3C2)C[C@H](C)O1 (stereo partly shown)"
result = "6.00 to 8.00"

[[record]]
molecule = "O=C(O)c1ccc2c(C3CCCCC3)c3n(c2c1)CC(C(=O)N1CCC(N2C(=O)Cc4ccccc42)CC1)=Cc1ccccc1-3"
result = "6.00 to 8.00"

